system: Ogataea parapolymorpha_XP_013932458; experiment: maximal culture density with compound as sole sulfur source (OD600); higher = better growth; settings: sulfur source concentration 200 µM; S. cerevisiae S288C/BY sul1Δ sul2Δ soa1Δ with transporter ortholog inserted at SOA1 locus; sulfur-free B medium, 4% glucose, pH 6.5, sole sulfur source
I'd be grateful if you could share measured maximal culture density for these entries.
// response body must contain only the number

Task: Tell us which maximal culture density value is on record for CCCCS(=O)(=O)O [Butanesulfonate]
Output: 0.274

Task: Please report maximal culture density for the following compound: CCCS(=O)(=O)O [Propanesulfonate]
Output: 0.243

Task: Using known records, supply maximal culture density for O=S(=O)(O)CCO [Isethionate]
Output: 0.242

Task: Using known records, supply maximal culture density for `NCCS(=O)(=O)O`
Output: 0.245

Task: Supply measured maximal culture density of O=S(=O)(O)CO [Hydroxymethane sulfonate] in your reply.
Output: 0.234

###

Kindly supply the reported maximal culture density values for the records listed here.
test system: Aspergillus nidulans_CBF80346; test: maximal culture density with compound as sole sulfur source (OD600); higher = better growth; conditions: sulfur source concentration 200 µM; S. cerevisiae S288C/BY sul1Δ sul2Δ soa1Δ with transporter ortholog inserted at SOA1 locus; sulfur-free B medium, 4% glucose, pH 6.5, sole sulfur source
Lab note: jot the number down without any unit.

Task: Please look at this compound and report its maximal culture density: CSCC[C@H](N)C(=O)O [Methionine]
Output: 1.58

Task: Check the records and state maximal culture density for O=S(O)O [sulfite]
Output: 0.262

Task: Return value of maximal culture density for input N[C@@H](CS(=O)(=O)O)C(=O)O [L-cysteic acid] , no commentary.
Output: 0.823

Task: Identify measured maximal culture density associated with O=S(=O)(O)CO [Hydroxymethane sulfonate]
Output: 0.208

###

tested on: Aspergillus nidulans_XP_660670; test: maximal growth rate with compound as sole sulfur source (OD600 per h); higher = better growth / uptake of the sulfur source; conditions: sulfur source concentration 200 µM; S. cerevisiae S288C/BY sul1Δ sul2Δ soa1Δ with transporter ortholog inserted at SOA1 locus; sulfur-free B medium, 4% glucose, pH 6.5, sole sulfur source
EXPERIMENTAL ENDPOINT: maximal growth rate
Lab note: record the figure alone, no unit after it.

Task: For the compound O=S(=O)(O)CO [Hydroxymethane sulfonate] , report maximal growth rate.
Output: 0.00358

Task: Fill in reported maximal growth rate for this entry: CCCCS(=O)(=O)O [Butanesulfonate]
Output: 0.00393

Task: Tell me measured maximal growth rate for `O=C(O)CS(=O)(=O)O` please.
Output: 0.00401

Task: Could you please provide reported maximal growth rate for `N[C@@H](CS(=O)(=O)O)C(=O)O` ? Thanks!
Output: 0.00837

Task: Read the entry O=S(=O)(O)O [sulfate] and write its reported maximal growth rate.
Output: 0.00401

Task: Retrieve maximal growth rate measured for CCCS(=O)(=O)O [Propanesulfonate] and print it.
Output: 0.00401

###

test system: Saccharomyces uvarum_SOA2; experiment: maximal growth rate with compound as sole sulfur source (OD600 per h); higher = better growth / uptake of the sulfur source; conditions: sulfur source concentration 200 µM; S. cerevisiae S288C/BY sul1Δ sul2Δ soa1Δ with transporter ortholog inserted at SOA1 locus; sulfur-free B medium, 4% glucose, pH 6.5, sole sulfur source
For each of the compounds below, state its maximal growth rate.

Task: Please give the documented maximal growth rate of CCCCS(=O)(=O)O [Butanesulfonate]
Output: 0.0878

Task: In one line, give reported maximal growth rate of the entry CSCC[C@H](N)C(=O)O [Methionine] .
Output: 0.138

Task: Consider the compound NCCS(=O)(=O)O [Taurine] . State its measured maximal growth rate.
Output: 0.0111

###

Give measured maximal growth rate for each item. Keep answers brief.
test system: Ogataea parapolymorpha_XP_013936897; assay: maximal growth rate with compound as sole sulfur source (OD600 per h); higher = better growth / uptake of the sulfur source; conditions: sulfur source concentration 200 µM; S. cerevisiae S288C/BY sul1Δ sul2Δ soa1Δ with transporter ortholog inserted at SOA1 locus; sulfur-free B medium, 4% glucose, pH 6.5, sole sulfur source
Kindly provide the number alone.

Task: Please indicate maximal growth rate recorded for CCCS(=O)(=O)O [Propanesulfonate]
Output: 0.00486

Task: Let me know recorded maximal growth rate for O=S(=O)(O)CO [Hydroxymethane sulfonate] , thanks.
Output: 0.00499

Task: Return reported maximal growth rate. Input compound: CCCCS(=O)(=O)O [Butanesulfonate]
Output: 0.0049

Task: Quickly give me recorded maximal growth rate for CCS(=O)(=O)O [Ethanesulfonate]
Output: 0.00513

Task: Identify the reported maximal growth rate for the following entry. O=S(=O)(O)CCO [Isethionate]
Output: 0.0049
